All values here come from PubChem BioAssay (NCI).

Test system: KM12 colon
Experiment: NCI tumour cell line growth inhibition, 48 h
TGI: recorded values
metric: TGI

molecule: Nc1nc(NCC2(CO)CC2)cc(=O)[nH]1
experimentalSystem: KM12 colon
result: > 100 µM
--
molecule: CCN1C(=O)N(CC)C2C1NN=c1s/c(=C3\C(=O)N(CC(C)(C)C)c4ccccc43)c(=O)n12 (stereo not given)
experimentalSystem: KM12 colon
result: 18.4 µM
--
molecule: COc1cc(N(CCC#N)CCC#N)ccc1/C(N=Nc1ccccc1C)=N\NC(=O)c1ccc(C)cc1
experimentalSystem: KM12 colon
result: > 100 µM
--
molecule: O=C(Oc1cccnc1)c1cc2cc(CCl)ccc2oc1=O
experimentalSystem: KM12 colon
result: > 100 µM
--
molecule: NC(=O)c1cc(S(=O)(=O)Nc2nnc(-c3ccccc3)c(-c3ccccc3)n2)c(SCc2ccccc2)cc1Cl
experimentalSystem: KM12 colon
result: > 100 µM

---

System: SF-539 CNS
Assay: NCI tumour cell line growth inhibition, 48 h

compound: O=C(Nc1ccc(-n2ccc3c(NC(=O)c4ccccc4)nccc32)cc1)Nc1ccc(Cl)c(Cl)c1
unitString: µM
modifier: =
TGI: 2.41

compound: CC(=O)O[C@H]1CCC2[C@@H]3CCC4Nc5oncc5C[C@]4(C)C3CC[C@@]21C (stereo not given in full)
unitString: µM
modifier: =
TGI: 9.84

compound: O=C(Nc1ccc(F)cc1)c1cc(S(=O)(=O)Nc2nc3ccccc3o2)c(SCc2ccccc2)cc1Cl
unitString: µM
modifier: =
TGI: 31.2

compound: COC(=O)C1(C(=O)OC)C/C(C)=C(/C)SCCCS1
unitString: µM
modifier: >
TGI: 100

compound: CCOP(=O)(OCC)OC1C=CC2CCC1C2 (stereo not given)
unitString: µM
modifier: >
TGI: 100

compound: O=C1OCC2C1C1c3ccccc3C(O)c3ccccc3C21 (stereo not given)
unitString: µM
modifier: >
TGI: 100

compound: C#CC(C)(C)OC(=O)C(=[N+]=[N-])C(C)=O
unitString: µM
modifier: >
TGI: 10

compound: CC(O)CCCCC(O)CCC[C@H](O)[C@H]1CCC([C@H]2CCC([C@@H](O)CCCCCCCCCCCCC3=C[C@H](C)OC3=O)O2)O1 (stereo not given in full)
unitString: µM
modifier: =
TGI: 20.6

compound: O=C1C=CC(=O)c2c1ccc1c3ccccc3n(-c3cccc([N+](=O)[O-])c3)c21
unitString: µM
modifier: >
TGI: 6.82

compound: Cc1c(O)c(OC2OC(CO)C(O)C(O)C2O)cc2c1CC[C@@H]1C2(C)C(=O)C[C@]2(C)[C@@H]([C@@](C)(O)C(=O)CCC(C)(C)O)[C@H](O)C[C@@]12C (stereo not given in full)
unitString: µM
modifier: >
TGI: 100

compound: O=C(O)C1C2C=CC(C2)C1c1ccccc1 (stereo not given)
unitString: µM
modifier: >
TGI: 100

compound: O=S(=O)(c1ccccc1)C1CN2OC1(S(=O)(=O)c1ccccc1)CC2c1ccc(Br)cc1 (stereo not given)
unitString: µM
modifier: =
TGI: 89.9

compound: COc1cc(O)c(C(=O)/C=C/c2ccc(O)cc2)cc1Oc1ccc(/C=C/C(=O)c2ccc(O)cc2O)cc1
unitString: µM
modifier: =
TGI: 16.2

compound: Cc1cc(C)c(NC(=O)c2sc3nc4c(cc3c2N)CN(Cc2ccccc2)CC4)c(C)c1
unitString: µM
modifier: =
TGI: 7.79

compound: CCC(=O)O[C@H]1CC[C@H]2[C@@H]3CCC4=C/C(=N/OC(=O)c5cccc6c(=O)c7ccccc7[nH]c56)CC[C@]4(C)[C@H]3CC[C@]12C
unitString: µM
modifier: =
TGI: 39.3

compound: Cc1nc(-[n+]2nc(-c3ccncc3)nn2-c2ccccc2)sc1C
unitString: µM
modifier: =
TGI: 69.2

compound: CCOC(=O)C1(C/C=C/CBr)CCc2ccccc2C1=O (stereo not given)
unitString: µM
modifier: =
TGI: 36.2

compound: CNS(=O)(=O)NNS(=O)(=O)c1ccc(Br)cc1
unitString: µM
modifier: >
TGI: 100

compound: COC(=O)CC1C=CC(C)(OC)OO1 (stereo not given)
unitString: µM
modifier: >
TGI: 100

compound: COc1ccc(O)c(C(=O)c2ccc(C(=O)N[C@H]3CCCNC[C@@H]3NC(=O)c3ccncc3)cc2)c1F
unitString: µM
modifier: =
TGI: 7.68
